// provenance: patent US20100291106A1

Target Entity: T1, cynomolgus complement C3b protein (cynomolgus monkey (Macaca fascicularis))
T1 construct: also called cyno C3b; cynoC3b
Experimental Protocol: SPR (Biacore T100), C3b captured by anti-C3d antibody, IgG as analyte, 1:1 model
Property Label: kon (M⁻¹ s⁻¹)
# number only, unit M⁻¹ s⁻¹ dropped from output

Worked cases, answers included:
- Binder: "MOR09674 IgG (antibody, V domains shown, Germlined human IgG1 with leucines 234 and 235 changed to alanines, lambda; also called antibody 9674) VH: EVQLVQSGAEVKKPGASVKVSCKASGYTFTSYSMHWVRQAPGQGLEWMGLINPYNGNTHYAQKFQGRVTMTRDTSISTAYMELSSLRSEDTAVYYCARMLRFDVWGQGTLVTVSS VL: ESALTQPASVSGSPGQSITISCTGTSSDGGGYNYVSWYQQHPGKAPKLMIYGVSNRPSGVSNRFSGSKSGNTASLTISGLQAEDEADYYCQTYTRYSDSPVFGGGTKLTVLG"
  Units: "M⁻¹ s⁻¹"
  kon: "8.34e+06"
- Binder: "MOR09675 IgG (antibody, V domains shown, Germlined human IgG1 with leucines 234 and 235 changed to alanines, kappa; also called antibody 9675) VH: EVQLVQSGAEVKKPGASVKVSCKASGYTFTGYYINWVRQAPGQGLEWMGIISPNQGTTGYAQKFQGRVTMTRDTSISTAYMELSSLRSEDTAVYYCARGNYDHLDYWGQGTLVTVSS VL: DIQMTQSPSSLSASVGDRVTITCRASQGISNYLNWYQQKPGKAPKLLIYDASTLQSGVPSRFSGSGSGTDFTLTISSLQPEDFATYYCQQDWHTLPVTFGQGTKVEIKR"
  Units: "M⁻¹ s⁻¹"
  kon: "1.45e+06"

Look up kon for this binder: MOR09612 IgG (antibody, V domains shown, Germlined human IgG1 with leucines 234 and 235 changed to alanines, kappa; also called antibody 9612) VH: EVQLVESGGGLVQPGGSLRLSCAASGFTFSSYWMTWVRQAPGKGLEWVSSIKIKPDGYAASVKGRFTISRDNSKNTLYLQMNSLRAEDTAVYYCARLFYQYFARMDYWGQGTLVTVSS VL: DIQMTQSPSSLSASVGDRVTITCRASQDISNYLNWYQQKPGKAPKLLIYAASNLQSGVPSRFSGSGSGTDFTLTISSLQPEDFATYYCQQWDSFSPTFGQGTKVEIKR
3.43e+06
